Assay: qHTS for Inhibitors of human tyrosyl-DNA phosphodiesterase 1 (TDP1): qHTS in cells in absence of CPT; note: nearly all actives have a fitted effect of over 55% in size; note: potency is the fitted concentration of half-maximal effect
Conditions: DT40 Tdp1-/- hTDP1 cells, no CPT, ATP luminescence, 48 h
In all, about 420,000 compounds went through this assay and about 64,000 (15%) were called active. Not shown: some 27% with an inconclusive outcome. The list is a sample of the results.
readout name: Potency

These solved cases illustrate the format of a correct answer.
Cc1cccc(N2C(=O)c3ccc(C(=O)Nc4cccc(C(=O)O)c4)cc3C2=O)c1 ... inactive
O=C(CCc1ccccc1)NCc1cccnc1 ... inactive
O=C(CCc1ccc(S(=O)(=O)NC2CCCCC2)cc1)NCc1ccccc1 ... inactive
Cc1ccc(C(=O)N2CCc3cc(CNC(=O)c4ccc(Br)cc4)ccc32)cc1 ... 14.6 µM (active)
CC(NC(=O)CC1SC(N)=NC1=O)c1ccccc1 (stereo unspecified) ... inactive

Fill in reported Potency for this entry: "COc1cccc(Nc2nnc(SCC(=O)N3CC(=O)Nc4ccccc43)s2)c1"
inactive

----------
Assay: qHTS for Inhibitors of human tyrosyl-DNA phosphodiesterase 1 (TDP1): qHTS in cells in absence of CPT; note: nearly all actives have a fitted effect of over 55% in size
Conditions: DT40 Tdp1-/- hTDP1 cells, no CPT, ATP luminescence, 48 h
Screen size: about 420,000 compounds; about 64,000 (15%) were called active. Not shown: some 27% with an inconclusive outcome. Calls come from the whole dose curve; as a rule, active = well fitted inhibition curve with a large enough effect; inconclusive = small, poorly fitted or top-dose-only effect; inactive = flat fitted curve, though single readings scatter. These entries were drawn from the full list.
Write down one outcome, taken from y for active, n for inactive

Take a look at these entries with their results.
CCc1nnc(NC(=O)/C=C/c2ccc(C)o2)s1 ... n
Cc1ccc(/C=C/C(=O)Nc2ccc([N+](=O)[O-])c(NC(=O)/C=C/c3ccc(C)o3)c2)o1 ... y
CCOC(=O)N1CCN(Cc2nc3cc(NC(=O)CC)ccc3n2CC)CC1 ... y
CCOC(=O)N1CCN(Cc2nc3cc(NC(C)=O)ccc3n2C)CC1 ... n
COc1ccc(OC)c(NC(=O)/C=C/c2ccc(C)o2)c1 ... n
CC(C)(C)NC(=O)CN(C(=O)c1csnn1)c1ccccc1-c1ccccc1 ... n
COC(=O)C1=CN(c2c(C)cc(C)cc2C)C(N)=C(C#N)C1c1cccc(F)c1 (stereo not given) ... y
Cc1cc(F)ccc1NC(=O)C(C)n1c2ccccc2c2nc(=O)cc(C)n21 (stereo not given) ... n

Hi, do you know how "COc1ccc(Br)cc1CNC(=O)c1cc(=O)[nH]c2ccc(S(=O)(=O)N3CCCC3)cc12" came out in this test?
n

Recorded call for "O=C(CC12CC3CC(CC(C3)C1)C2)NCc1ccco1" ?
n

----------
Assay: qHTS for Inhibitors of human tyrosyl-DNA phosphodiesterase 1 (TDP1): qHTS in cells in absence of CPT; note: nearly all actives have a fitted effect of over 55% in size
Settings: DT40 Tdp1-/- hTDP1 cells, no CPT, ATP luminescence, 48 h
In all, about 420,000 compounds went through this assay and about 64,000 (15%) were called active. Another 27% or so got no clear call; they are omitted. The call rests on the fitted dose curve; in most records, active means well fitted inhibition curve with a large enough effect; inconclusive means small, poorly fitted or top-dose-only effect; inactive means flat fitted curve, though single readings scatter. These entries were drawn from the full list.
A correct response names exactly one class from t = active, f = inactive

Field: example entries. Status: answers known.
CC(C)(C)C1CCC(OC(=O)CCC(=O)Nc2ccccc2)CC1 (configuration not stated) ... f
O=CN1CCN(C(=O)c2ccc3c(c2)OCO3)CC1 ... f
COC(=O)/C(=C1\Oc2ccc(C(C)(C)C)cc2S1)C(F)(F)F ... f

Each compound tested received a call. Report the one for "C[C@H](NC(=O)c1nc[nH]c1C(=O)NCC(=O)OC(C)(C)C)C(=O)OCc1ccccc1" .
f

Just curious, what result did "O=C(c1cccs1)n1nc(NCc2ccccc2)nc1NCc1ccccc1" get here?
f

# outcome recorded in this test, key = "CCCC(=O)n1nc(NCc2ccc(OC)cc2)nc1NCc1ccc(OC)cc1"
f

Entry "Cc1noc(C)c1C(=O)OCC(=O)N1CCN(S(=O)(=O)c2ccc3ccccc3c2)CC1" : call = ?
f

What outcome does the record of this test show for Cc1ccc(CN2CC(C(=O)NNC(=O)Cn3ccc(C(F)(F)F)n3)CC2=O)cc1 (configuration not stated) ?
f

Recorded test call requested for "CCOC(=O)CSc1nnc(CNc2nc(-c3ccccc3)cs2)n1C"
f

Outcome? "O=C(CSc1ncn[nH]1)Nc1ccc(Br)cc1Br"
f

Entry source: PubChem BioAssay AID686978
